Reported melting point values are given for each entry in this list.

• Cc1cccc2c1N(Cc1c[nH]cn1)C(=O)C(NC(=O)Nc1cccc(-c3nnn[nH]3)c1)N=C2C1CCCCC1 (racemic) = 168.2 to 179.2 °C
• Cc1ccccc1C(=O)CN1C(=O)C(NC(=O)Nc2cccc(-c3nnn[nH]3)c2)N=C(c2ccccc2F)c2cccc(C)c21 (racemic) = 215.8 to 220.3 °C
• CC(=O)c1sccc1CN1C(=O)C(NC(=O)Nc2cccc(C)c2)N=C(C)c2ccccc21 (racemic) = 215 to 219 °C
• CSc1cccc(NC(=O)NC2N=C(C(C)C)c3ccccc3N(CC(=O)N3CC4CCC(CC4)C3)C2=O)c1 (racemic) = 134 to 135 °C

INPUT: Entry CC1=NC(NC(=O)Nc2cc(C)ccn2)C(=O)N(CC(=O)N2CC3CCC(CC3)C2)c2c(C)cccc21 (racemic) has what melting point?
OUTPUT: 152 to 154.1 °C

INPUT: Entry Cc1cccc(NC(=O)NC2N=C(CN3CC4CCC(CC4)C3)c3cccc(C)c3N(C)C2=O)c1 (racemic) has what melting point?
OUTPUT: 145.6 to 149.2 °C

INPUT: Entry CCC1=NC(NC(=O)Nc2cccc(C)c2)C(=O)N(CC(=O)N2CC3CCC(CC3)C2)c2ccccc21 (racemic) has what melting point?
OUTPUT: 115 to 120 °C

###

parameter-measured: melting point

Examples with their reported melting point follow.
• Cc1cccc2c1N(CC(=O)c1ccccc1O)C(=O)C(NC(=O)Nc1cccc(-c3nnnn3C(c3ccccc3)(c3ccccc3)c3ccccc3)c1)N=C2c1ccccc1F (racemic) = 132.1 to 146 °C
• Cc1cccc2c1N(CC(=O)N1CC3CCC(CC3)C1)C(=O)C(NC(=O)Nc1cccc(C=O)c1)N=C2c1ccccc1F (racemic) = 236.8 to 242.1 °C
• CC1=NC(NC(=O)Nc2cccc(N(C)C)c2)C(=O)N(CC(=O)N2CC3CCC(CC3)C2)c2c(C)cccc21.Cl (racemic) = 190.9 to 193.1 °C
• Cc1cccc(NC(=O)NC2N=C(C3CCCCC3)c3cccc(C)c3N(CC(=O)C3CCCCC3)C2=O)c1 (racemic) = 159.3 to 169.6 °C
• Cc1cccc(NC(=O)NC2N=C(C3CC3)c3cccc(C)c3N(CC(=O)C3CCCCC3)C2=O)c1 (racemic) = 143.6 to 144.2 °C

INPUT: Entry Cc1cccc(NC(=O)NC2N=C(CO)c3cccc(C)c3N(CC(=O)N3CCCCCCC3)C2=O)c1 (racemic) has what melting point?
OUTPUT: 214.5 to 216 °C

INPUT: Entry Cc1cccc(NC(=O)NC2N=C(CC(C)C)c3cccc(C)c3N(CC(=O)N3CCCCCCC3)C2=O)c1 (racemic) has what melting point?
OUTPUT: 131.6 to 133.4 °C

INPUT: Entry Cc1cccc(NC(=O)NC2N=C(C(C)C)c3ccccc3N(CC(=O)N3CC4CCC(CC4)C3)C2=O)c1 (racemic) has what melting point?
OUTPUT: 123 to 126 °C

###

Reported melting point values are given for each entry in this list.

Examples with their reported melting point follow.
- COCC1=NC(NC(=O)Nc2cccc(C)c2)C(=O)N(CC(=O)N2CC3CCC(CC3)C2)c2c(C)cccc21 (racemic): 178.1 to 182.1 °C
- CC(=O)CN1C(=O)C(NC(=O)Nc2cccc(C)c2)N=C(C)c2cccc(C)c21 (racemic) [Example 46]: 126.1 to 127.7 °C
- Cc1cccc2c1N(CC(=O)N1CC3CCC(CC3)C1)CC(NC(=O)Nc1cccc(Br)c1)N=C2c1ccccc1F (racemic): > 250 °C
- Cc1cccc2c1N(CC(=O)C(C)(C)C)C(=O)C(NC(=O)Nc1cccc(-c3nnn[nH]3)c1)N=C2c1ccccc1F (racemic): 160.4 to 180.7 °C (dec.)
- CC1=NC(NC(=O)Nc2cccc(C)c2)C(=O)N(CC(=O)NC(C)(C)C)c2c(C)cccc21 (racemic) [48-3(11)]: 243.4 to 244.4 °C

INPUT: Entry Cc1cccc2c1N(CC(=O)c1ccccc1OCC(=O)O)C(=O)C(NC(=O)Nc1cccc(-c3nnn[nH]3)c1)N=C2c1ccccc1F (racemic) has what melting point?
OUTPUT: 109.6 to 113 °C

INPUT: Entry O=C(Nc1cccc(-c2nnn[nH]2)c1)NC1N=C(CC2CCCCC2)c2ccccc2N(CC(=O)N2CC3CCC(CC3)C2)C1=O (racemic) has what melting point?
OUTPUT: 218 to 222 °C (dec.)

###

parameter-measured: melting point

Examples with their reported melting point follow.
* Cc1cccc(NC(=O)NC2N=C(C=O)c3cccc(C)c3N(CC(=O)N3CCCCCCC3)C2=O)c1 (racemic) | 137.9 to 141 °C
* Cc1cccc2c1N(CC(=O)c1ccccc1[N+](=O)[O-])C(=O)C(NC(=O)Nc1cccc(-c3nnn[nH]3)c1)N=C2c1ccccc1F (racemic) | 192.2 to 197.1 °C
* CC1=NC(NC(=O)Nc2cccc(C)c2)C(=O)N(CC(=O)C2CCCCC2)c2c(C)cccc21 (racemic) | 179.2 to 180.9 °C

INPUT: Entry CCOC(=O)CN1C(=O)C(NC(=O)Nc2cccc(C)c2)N=C(C)c2cccc(C)c21 (racemic) has what melting point?
OUTPUT: 229.7 to 231 °C

INPUT: Entry Cc1cccc2c1N(CCO)C(=O)C(NC(=O)Nc1cccc(-c3nnn[nH]3)c1)N=C2C1CCCCC1 (racemic) has what melting point?
OUTPUT: 223.5 to 224.2 °C

INPUT: Entry CC(=O)CN1C(=O)C(NC(=O)Nc2cccc(-c3nnn[nH]3)c2)N=C(c2ccccc2F)c2cccc(C)c21 (racemic) has what melting point?
OUTPUT: 173.5 to 189.8 °C

INPUT: Entry Cc1cccc2c1N(CC(=O)N1CC3CCC(CC3)C1)C(=O)C(NC(=O)Nc1cccc(C=NO)c1)N=C2c1ccccc1F (racemic) has what melting point?
OUTPUT: 196 to 199 °C

INPUT: Entry Cc1cccc(NC(=O)NC2N=C(C3CCCCC3)c3cccc(C)c3N(CC(=O)N3CCCCCCC3)C2=O)c1 (racemic) has what melting point?
OUTPUT: 153.6 to 155.3 °C

INPUT: Entry Cc1cccc(NC(=O)NC2N=C(c3ccccc3F)c3cccc(C)c3N(CC(=O)c3ccccc3C)C2=O)c1 (racemic) has what melting point?
OUTPUT: 190.2 to 196.2 °C

INPUT: Entry CC1=NC(NC(=O)Nc2cccc(C)c2)C(=O)N(CC(=O)C2CCCCCCC2)c2c(C)cccc21 (racemic) has what melting point?
OUTPUT: 162.9 to 164.4 °C

INPUT: Entry Cc1ccccc1C(=O)CN1C(=O)C(NC(=O)Nc2cccc(C(=O)O)c2)N=C(c2ccccc2F)c2cccc(C)c21 (racemic) has what melting point?
OUTPUT: 168.1 to 176.3 °C

INPUT: Entry CC1=NC(NC(=O)Nc2cccc(C)c2)C(=O)N(CC(=O)N2CC3CCC(CC3)C2)c2ccccc21 (racemic) has what melting point?
OUTPUT: 150 to 153 °C

INPUT: Entry CC1=NC(NC(=O)Nc2cccc(C)c2)C(=O)N(CC(=O)N(CC(C)C)CC(C)C)c2c(C)cccc21 (racemic) has what melting point?
OUTPUT: 226.9 to 228.1 °C

INPUT: Entry CC(=NO)c1cccc(NC(=O)NC2N=C(c3ccccc3F)c3cccc(C)c3N(CC(=O)N3CC4CCC(CC4)C3)C2=O)c1 (racemic) has what melting point?
OUTPUT: 199.1 to 207.8 °C

INPUT: Entry Cc1cccc(NC(=O)NC2N=C(CN(C)C)c3cccc(C)c3N(CC(=O)N3CCCCCCC3)C2=O)c1 (racemic) has what melting point?
OUTPUT: 147.9 to 149.1 °C

INPUT: Entry Cc1cccc(NC(=O)NC2N=C(CCC(C)C)c3ccccc3N(Cc3ncccc3C)C2=O)c1 (racemic) has what melting point?
OUTPUT: 151 to 154 °C

INPUT: Entry Cc1cccc(NC(=O)NC2N=C(CC(C)C)c3cccc(C)c3N(CC(=O)C3CCCCC3)C2=O)c1 (racemic) has what melting point?
OUTPUT: 152.3 to 154.8 °C

INPUT: Entry CC1=NC(NC(=O)Nc2cccc(C)c2)C(=O)N(CC(=O)N2CC3CCC(CC3)C2)c2c1cccc2N(C)C.Cl (racemic) has what melting point?
OUTPUT: 216.5 to 218.7 °C

INPUT: Entry CC(=O)OCCN1C(=O)C(NC(=O)Nc2cccc(-c3nnn[nH]3)c2)N=C(C2CCCCC2)c2cccc(C)c21 (racemic) has what melting point?
OUTPUT: 165.2 to 168.4 °C

INPUT: Entry CC1=NC(NC(=O)Nc2cccc(C)c2)C(=O)N(CC(=O)N(CCO)CCO)c2c(C)cccc21 (racemic) has what melting point?
OUTPUT: 160.5 to 161.1 °C

###

Reported melting point values are given for each entry in this list.

Examples with their reported melting point follow.
- CC1=NC(NC(=O)Nc2cccc(C)c2)C(=O)N(CC(=O)N2CC3CCC(CC3)C2)c2c(C)cccc21 (racemic): 176.9 to 179.1 °C
- CC1=NC(NC(=O)Nc2cccc(Br)c2)C(=O)N(CC(=O)N2CC3CCC(CC3)C2)c2c(C)cccc21 (racemic): 168.1 to 171.1 °C
- CC(=O)c1sccc1CN1C(=O)C(NC(=O)Nc2cccc(C)c2)N=C(CCC(C)C)c2ccccc21 (racemic): 190 to 195 °C
- Cc1cccc2c1N(CC(=O)C1CC1)C(=O)C(NC(=O)Nc1cccc(-c3nnn[nH]3)c1)N=C2C1CCCCC1 (racemic): 227.1 to 233.2 °C
- CC(=O)c1ccccc1CN1C(=O)C(NC(=O)Nc2cccc(-c3nnn[nH]3)c2)N=C(C2CCCCC2)c2cccc(C)c21 (racemic): 199 to 208 °C

# ---- query compound ----
INPUT: Entry CC(=O)c1sccc1CN1C(=O)C(NC(=O)Nc2cccc(C)c2)N=C(C(C)C)c2ccccc21 (racemic) has what melting point?
OUTPUT: 219 to 221 °C (dec.)

Data provenance: patent US20020183313A1
